# Target Of Assay: rat AT1aR (Rattus norvegicus)
# Sequence (P25095 1-359): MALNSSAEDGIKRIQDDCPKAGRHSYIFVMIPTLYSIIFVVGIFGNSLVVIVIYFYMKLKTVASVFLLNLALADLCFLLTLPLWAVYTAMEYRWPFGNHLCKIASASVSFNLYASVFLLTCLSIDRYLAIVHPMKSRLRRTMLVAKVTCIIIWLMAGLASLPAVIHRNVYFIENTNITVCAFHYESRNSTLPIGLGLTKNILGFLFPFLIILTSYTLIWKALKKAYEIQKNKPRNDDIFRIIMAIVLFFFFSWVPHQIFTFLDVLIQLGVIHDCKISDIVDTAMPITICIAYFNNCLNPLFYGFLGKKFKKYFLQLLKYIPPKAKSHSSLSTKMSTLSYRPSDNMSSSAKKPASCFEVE
# Experiment Notes: beta-arrestin2 recruitment assay (PathHunter), rat AT1aR
# Type: cell-based
# Run Parameters: 1 h, read-out: Span (relative to hAngII)
Where a SMILES comes first, the peptide text is derived from it. [ ]: non-standard residue; d: D form. Tle = CC(C)(C)[C@H](N)C(=O)O; Ac6c = NC1(C(=O)O)CCCCC1; Sar = CNCC(=O)O
Result Type: Emax

compound="CNCC(=O)N[C@@H](CCCNC(=N)N)C(=O)N[C@H](C(=O)N[C@@H](Cc1ccc(O)cc1)C(=O)NC1(C(=O)N[C@@H](Cc2c[nH]cn2)C(=O)N2CCC[C@H]2C(=O)N[C@H](C(=O)O)[C@@H](C)O)CCCCC1)C(C)C [SEQ ID NO: 14, Sar-Arg-Val-Tyr-cyHex-His-Pro-Thr] (H-[Sar]RVY[Ac6c]HPT-OH)" result_type=Emax result="< 105%"
compound="CNCC(=O)N[C@@H](CCCNC(=N)N)C(=O)N[C@H](C(=O)N[C@@H](Cc1ccc(O)cc1)C(=O)NC1(C(=O)N[C@@H](Cc2c[nH]cn2)C(=O)N2CCC[C@H]2C(=O)N[C@@H](CS)C(=O)O)CCCCC1)C(C)C [SEQ ID NO: 34, Sar-Arg-Val-Tyr-cyHex-His-Pro-Cys] (H-[Sar]RVY[Ac6c]HPC-OH)" result_type=Emax result="< 105%"
compound="CNCC(=O)N[C@@H](CCCNC(=N)N)C(=O)N[C@H](C(=O)N[C@@H](Cc1ccc(O)cc1)C(=O)NC1(C(=O)N[C@@H](Cc2c[nH]cn2)C(=O)N2CCC[C@H]2C(=O)N[C@H](C(=O)O)C(C)(C)C)CCCCC1)C(C)C [SEQ ID NO: 56, Sar-Arg-Val-Tyr-cyHex-His-Pro-AA02] (H-[Sar]RVY[Ac6c]HP[Tle]-OH)" result_type=Emax result="< 105%"
